This section presents compounds with their documented IC50 values.
- Test Summary: Inhibition of HIV1 YU2 gp120 binding to immobilized CD4 binding site specific F105 monoclonal antibody by surface plasmon resonance method
- Parameters: species or system Human immunodeficiency virus 1
Please answer using a numeric value trailed by its unit.

Entry CC[C@H](C)[C@H](NC(=O)[C@@H](N)CCCNC(=N)N)C(=O)N[C@@H](CC(N)=O)C(=O)N[C@@H](CC(N)=O)C(=O)N[C@H](C(=O)N1C[C@@H](n2cc(-c3ccccc3)nn2)C[C@H]1C(=O)N[C@@H](Cc1c[nH]c2ccccc12)C(=O)N[C@@H](CO)C(=O)N[C@@H](CCC(=O)O)C(=O)N[C@@H](C)C(=O)N[C@@H](CCSC)C(=O)N[C@@H](CCSC)C(=O)O)[C@@H](C)CC ; IC50 = 109 nM

Entry CC[C@H](C)[C@H](NC(=O)[C@@H](N)CCCNC(=N)N)C(=O)N[C@@H](CC(N)=O)C(=O)N[C@@H](CC(N)=O)C(=O)N[C@H](C(=O)N1CCC[C@H]1C(=O)N[C@@H](Cc1c[nH]c2ccccc12)C(=O)N[C@@H](CO)C(=O)N[C@@H](CCC(=O)O)C(=O)N[C@@H](C)C(=O)N[C@@H](CCSC)C(=O)N[C@@H](CCSC)C(=O)O)[C@@H](C)CC [RINNIPWSEAMM] ; IC50 = 6400 nM

Entry CC[C@H](C)[C@H](NC(=O)[C@@H](N)CCCNC(=N)N)C(=O)N[C@@H](CC(N)=O)C(=O)N[C@@H](CC(N)=O)C(=O)N[C@H](C(=O)N1C[C@@H](n2cc(-c3ccc(CCc4ccccc4)cc3)nn2)C[C@H]1C(=O)N[C@@H](Cc1c[nH]c2ccccc12)C(=O)N[C@@H](CO)C(=O)N[C@@H](CCC(=O)O)C(=O)N[C@@H](C)C(=O)N[C@@H](CCSC)C(=O)N[C@@H](CCSC)C(=O)O)[C@@H](C)CC ; IC50 = 23 nM

Entry CC[C@H](C)[C@H](NC(=O)[C@@H](N)CCCNC(=N)N)C(=O)N[C@@H](CC(N)=O)C(=O)N[C@@H](CC(N)=O)C(=O)N[C@H](C(=O)N1C[C@@H](n2cc(-c3ccc(C)cc3)nn2)C[C@H]1C(=O)N[C@@H](Cc1c[nH]c2ccccc12)C(=O)N[C@@H](CO)C(=O)N[C@@H](CCC(=O)O)C(=O)N[C@@H](C)C(=O)N[C@@H](CCSC)C(=O)N[C@@H](CCSC)C(=O)O)[C@@H](C)CC ; IC50 = 76 nM

Entry CCc1ccc(-c2cn([C@H]3C[C@@H](C(=O)N[C@@H](Cc4c[nH]c5ccccc45)C(=O)N[C@@H](CO)C(=O)N[C@@H](CCC(=O)O)C(=O)N[C@@H](C)C(=O)N[C@@H](CCSC)C(=O)N[C@@H](CCSC)C(=O)O)N(C(=O)[C@@H](NC(=O)[C@H](CC(N)=O)NC(=O)[C@H](CC(N)=O)NC(=O)[C@@H](NC(=O)[C@@H](N)CCCNC(=N)N)[C@@H](C)CC)[C@@H](C)CC)C3)nn2)cc1 ; IC50 = 137 nM
